- SUBJECT OF TEST: T1, human interleukin 13 receptor subunit alpha 2 (IL-13RA2) (human, UniProt Q14627 27-380)
- T1 construct: whole, on cells; also called IL-13Rα2; CD213A2
- T1 sequence (looked up): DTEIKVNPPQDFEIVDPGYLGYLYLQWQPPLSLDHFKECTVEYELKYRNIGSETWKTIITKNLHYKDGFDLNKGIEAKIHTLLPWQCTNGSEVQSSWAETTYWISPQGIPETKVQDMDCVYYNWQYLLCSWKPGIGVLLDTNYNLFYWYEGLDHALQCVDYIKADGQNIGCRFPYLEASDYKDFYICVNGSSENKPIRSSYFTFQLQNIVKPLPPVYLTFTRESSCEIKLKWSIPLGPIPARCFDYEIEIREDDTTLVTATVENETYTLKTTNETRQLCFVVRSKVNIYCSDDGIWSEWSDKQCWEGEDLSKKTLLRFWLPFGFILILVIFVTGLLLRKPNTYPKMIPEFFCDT
- PROTOCOL DETAILS: FACS on A375 cells
Assignment: determine reported Top (MFI) for the given binders.
Could you give the number and then its unit, please?

Short answer for 61H8C1 H3L3 hIgG1 (antibody, V domains shown, humanized, hIgG1) VH: QVQLVQSGAEVAKPGASVKVSCKASGYTFTSYWTQWIRQAPGQGLEGIGAIYPGDDDTSYNQKFKGRATLTADKSTSTVYMQLSSLRSEDTAVYYCARGATLLRPFPYWGQGTLVTVSS VL: DIQMTQSPSSLSTSVGDRVTITCKASQDVSTAVAWYQQKPGKSPKLLIYSASYRYTGVPDRFSGSGSGTDFTFTISSLQPEDFATYSCQQHYSIPPTFGGGTKLEIK : Top (MFI) was 20100 MFI

Short answer for 57F8H3F1 H3L4 hIgG1 (antibody, V domains shown, humanized, hIgG1) VH: QVQLVQSGAEVVKPGASVKLSCKASGYTFTNYWMNWVKQAPGQGLEWIGRIDAYETETHYNQKFRDRATLTVDKSTSTVYMELSSLRSEDTAVYYCARGYGHYYGVDYWGQGTLVTVSS VL: DIVLTQSPSSLSASVGDRATITCRASENVGNFGISFVNWFQQKPGKPPKLLIYAASNLGSGDPARFSGSGSGTDFTLTISSLQPEDFATYFCQQSKGVPWTFGGGTKLEIK : Top (MFI) was 7610 MFI

Short answer for 61H8C1 H4L2 hIgG1 (antibody, V domains shown, humanized, hIgG1) VH: QVQLVQSGAEVAKPGASVKLSCKASGYTFTSYWTQWIKQAPGQGLEGIGAIYPGDDDTSYNQKFKGKATLTADKSTSTAYMQLSSLRSEDTAVYYCARGATLLRPFPYWGQGTLVTVSS VL: DIQMTQSPSSLSTSVGDRVTITCKASQDVSTAVAWYQQKPGKSPKLLIYSASYRYTGVPSRFSGSGSGTDFTLTISSLQPEDFATYSCQQHYSIPPTFGQGTKLEIK : Top (MFI) was 21100 MFI
